# Tested on: Salmonella typhimurium Ames mutagenicity, literature compiled
# testName: DSSTox (CPDBAS) Carcinogenic Potency Database Salmonella Mutagenicity
Active and inactive are the calls of the source.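 How the source made its calls: active means chemicals rated mutagenic or weakly mutagenic in the Salmonella bacterial test by one literature review, or positive overall by another; inconclusive means no clear call, values can overlap the other calls; inactive means the rest.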
Hi there, use one of these labels in your reply, thanks! true = active, false = inactive

Cc1c(N)nc(C)c2c1[nH]c1ccccc12	true

Tell me the assay call for C=CCOCC1CO1 (stereo unspecified) please.
true

Tell me the recorded outcome of this test for Cc1ccc(N)c(C)c1 .
true

Outcome? O=C(CCl)c1ccccc1
false

Status in this test for C=CC(=O)OCC ?
false

Give the logged outcome of this assay for the following compound: CCc1nc(N)nc(N)c1-c1ccc(Cl)cc1
false

Kindly provide the recorded test outcome for the following compound: Cc1cc(O)c(C)c2c1OC(C)(CCCC(C)CCCC(C)CCCC(C)C)CC2 (stereo unspecified)
false

State the result this test recorded for [O-][Br+2]([O-])O .
true

Called result for FC(F)(F)CCl
false

# outcome recorded in this test, key = COc1cc(N=Nc2ccccc2)ccc1N
true

Per the records of this test, what outcome belongs to CC(CN1c2ccccc2Sc2ccccc21)N(C)C (stereo unspecified) ?
false

Can you look up the reported call for CC[N+](=O)[O-] for me?
false
